Each entry below carries its recorded av puncta.
# assayed_target: tau (Homo sapiens, UniProt P10636)
# Sequence (P10636 623-695 limits assumed): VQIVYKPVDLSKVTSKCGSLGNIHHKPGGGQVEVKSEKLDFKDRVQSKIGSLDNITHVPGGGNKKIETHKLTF
# assay_overview: MCE Phenols Library screening, tau biosensor cell seeding assay (AvZ)
# Format: cell-based
# study_conditions: average of raw data 1 and 2
// return a plain number; no unit text

Some solved cases for reference:
{"columns": ["molecule", "assayed_target", "av puncta"],
 "data": [
  ["COc1cc(C(=O)O)cc(OC)c1O", "tau (Homo sapiens, UniProt P10636)", 20525.8],
  ["COc1cc(CC(=O)O)ccc1O", "tau (Homo sapiens, UniProt P10636)", 18758.8],
  ["COc1ccc(-c2cc(=O)c3c(O)c(OC)c(O)cc3o2)cc1", "tau (Homo sapiens, UniProt P10636)", 23601.4],
  ["O=C(OCC1=C[C@@H](O)[C@@H]2C=CO[C@@H](O[C@@H]3O[C@H](CO)[C@@H](O)[C@H](O)[C@H]3O)[C@H]12)c1ccc(O)cc1 [Agnuside]", "tau (Homo sapiens, UniProt P10636)", 19312.6]
]}

get_value(item= "O=C(/C=C/c1ccc(O)cc1)c1ccc(O[C@@H]2O[C@H](CO)[C@@H](O)[C@H](O)[C@H]2O)cc1O" , readout=av puncta) returns 21249.5

get_value(item= Oc1ccc2c(c1)OC[C@H]1c3cc4c(cc3O[C@@H]21)OCO4 [(-?)?-Maackiain] , readout=av puncta) returns 29633.2

get_value(item= "O=C(/C=C/c1ccc(O)c(O)c1)O[C@@H]1C[C@](O)(C(=O)O)C[C@@H](OC(=O)/C=C/c2ccc(O)c(O)c2)[C@H]1O" , readout=av puncta) returns 19930.3

get_value(item= CC(=O)c1c(O)c(C)c(O)c2c1OC1=CC(=O)C(C(C)=O)C(=O)C12C (stereo not drawn) , readout=av puncta) returns 32238.5

get_value(item= "O=c1cc(-c2ccc(O)c(O)c2)oc2c([C@@H]3O[C@H](CO)[C@@H](O)[C@H](O)[C@H]3O)c(O)cc(O)c12" , readout=av puncta) returns 20945

###

Each entry below carries its recorded Z Repl 2.
# assayed_target: tau (Homo sapiens, UniProt P10636)
# assay_overview: MCE Phenols Library screening, tau biosensor cell seeding assay (AvZ)
# Type: cell-based
# study_conditions: Z score, replicate 2
// return a plain number; no unit text

Some solved cases for reference:
{"columns": ["compound", "Z Repl 2"],
 "data": [
  ["COc1ccc(C(=O)O)cc1O", -0.549],
  ["Cc1c(C)c2c(c(C)c1O)CC[C@@](C)(CCC[C@H](C)CCC[C@H](C)CCCC(C)C)O2", -0.481],
  ["O=C(/C=C/c1ccc(O)c2c1[C@H](C(=O)O)[C@@H](c1ccc(O)c(O)c1)O2)O[C@H](Cc1ccc(O)c(O)c1)C(=O)O", -0.834]
]}

get_value(item= "COc1c2c3c4c(c(OC)c(=O)c5c(O)cc(OC)c(c6c(OC)cc(O)c(c1=O)c63)c54)[C@@H](C(C)=O)[C@@](C)(O)C2" , readout=Z Repl 2) returns -1.119

get_value(item= "COc1c(O)cc2occ(-c3ccc(O)cc3)c(=O)c2c1O" , readout=Z Repl 2) returns -0.055

get_value(item= "O=C1c2c(O)cccc2[C@@H]([C@@H]2O[C@H](CO)[C@@H](O)[C@H](O)[C@H]2O)c2cc(CO)cc(O)c21" , readout=Z Repl 2) returns -0.315

get_value(item= O=Cc1cccc(O)c1 [3-Hydroxybenzaldehyde] , readout=Z Repl 2) returns -0.354

get_value(item= COc1c2ccoc2c(O)c2oc(=O)ccc12 [8-Hydroxybergapten] , readout=Z Repl 2) returns 0.252

get_value(item= "O=C(CCc1ccc(O)c(O)c1)NCCCNCCCCNCCCNC(=O)CCc1ccc(O)c(O)c1" , readout=Z Repl 2) returns -0.952

###

Each entry below carries its recorded raw data 2.
# assayed_target: tau (Homo sapiens, UniProt P10636)
# assay_overview: MCE Phenols Library screening, tau biosensor cell seeding assay (AvZ)
# Type: cell-based
# study_conditions: puncta, replicate 2
// return a plain number; no unit text

Some solved cases for reference:
{"columns": ["compound", "raw data 2"],
 "data": [
  ["COc1ccc(C=O)cc1 [4-Methoxybenzaldehyde]", 21164.6],
  ["O=C1c2c(O)cc(O)cc2O[C@H](c2ccc(O)cc2)[C@H]1O [Dihydrokaempferol]", 13668.2],
  ["COc1ccc(-c2oc3c(CC=C(C)C)c(O[C@@H]4O[C@H](CO)[C@@H](O)[C@H](O)[C@H]4O)cc(O)c3c(=O)c2O[C@@H]2O[C@@H](C)[C@H](O)[C@@H](O)[C@H]2O)cc1 [Icariin]", 18844.8]
]}

get_value(item= O=C(OC[C@H]1OC(OC(=O)c2cc(O)c(O)c(O)c2)[C@H](OC(=O)c2cc(O)c(O)c(O)c2)[C@@H](OC(=O)c2cc(O)c(O)c(O)c2)[C@@H]1O)c1cc(O)c(O)c(O)c1 (stereo partly shown) [1,2,3,6-Tetragalloylglucose] , readout=raw data 2) returns 1864.38

get_value(item= O=C(O)c1cccc(O)c1 [3-Hydroxybenzoic acid] , readout=raw data 2) returns 3370.33

get_value(item= COc1cc(/C=C/C(=O)[O-])ccc1O.[Na+] [Ferulic acid (sodium)] , readout=raw data 2) returns 10022.5

get_value(item= CC(C)=CCc1cc2c(=O)cc(-c3ccc(O)cc3)oc2cc1O [Licoflavone A] , readout=raw data 2) returns 18372.9

get_value(item= CC(=O)Cc1cc(=O)c2c(C)cc(O)c([C@@H]3O[C@H](CO)[C@@H](O)[C@H](O)[C@H]3O)c2o1 [Aloesin] , readout=raw data 2) returns 10870.5

get_value(item= CCCCCCCCC[C@H](O)CC(=O)CCc1ccc(O)c(OC)c1 [10-Gingerol] , readout=raw data 2) returns 9373.24

get_value(item= Oc1ccc([C@H]2Oc3cc(O)cc(O)c3C[C@H]2O)cc1 [(-)-Epiafzelechin] , readout=raw data 2) returns 14710.3

get_value(item= O=C(/C=C/c1ccc(O)c(O)c1)O[C@@H]1C[C@](O)(C(=O)O)C[C@@H](O)[C@H]1O [Chlorogenic acid] , readout=raw data 2) returns 10127.4

get_value(item= O=c1cc(-c2ccccc2)oc2c(O)c(O)cc(O)c12 [Norwogonin] , readout=raw data 2) returns 5799.06

get_value(item= O=C(O)C[C@@H]1C(=O)O[C@H]2[C@@H]3OC(=O)c4cc(O)c(O)c(O)c4-c4c(cc(O)c(O)c4O)C(=O)OC[C@H]2O[C@@H](OC(=O)c2cc(O)c(O)c(O)c2)[C@@H]3OC(=O)c2cc(O)c(O)c3c2[C@H]1[C@H](O)C(=O)O3 [Chebulagic acid] , readout=raw data 2) returns 241.827

get_value(item= CC(=O)c1ccc(O)c(O)c1 [3',4'-Dihydroxyacetophenone] , readout=raw data 2) returns 2117.17

get_value(item= "O=c1c(O[C@@H]2O[C@H](CO)[C@@H](O)[C@H](O)[C@H]2O)c(-c2ccc(O)c(O)c2)oc2cc(O[C@@H]3O[C@H](CO[C@@H]4O[C@H](CO)[C@@H](O)[C@H](O)[C@H]4O)[C@@H](O)[C@H](O)[C@H]3O)cc(O)c12" , readout=raw data 2) returns 8130.05

get_value(item= CC1=CC(=O)c2c(O)cccc2C1=O [Plumbagin] , readout=raw data 2) returns 3106.45

###

Each entry below carries its recorded raw data 2.
# assayed_target: tau (Homo sapiens)
# assay_overview: MCE Phenols Library screening, tau biosensor cell seeding assay (AvZ)
# Assay type: cell-based
# study_conditions: puncta, replicate 2
// return a plain number; no unit text

{"columns": ["compound", "assayed_target", "assay_metric", "numeric_value"],
 "data": [
  ["COc1cc(O)c2c(=O)c3c(O[C@@H]4O[C@H](CO)[C@@H](O)[C@H](O)[C@H]4O)ccc(O)c3oc2c1 [Swertianolin]", "tau (Homo sapiens)", "raw data 2", 13320.3],
  ["Oc1cc(O)c2cc(O)c(-c3ccc(O)c(O)c3)[o+]c2c1.[Cl-] [Cyanidin (Chloride)]", "tau (Homo sapiens)", "raw data 2", 1551.23]
]}

get_value(item= COc1cc(O)ccc1/C=C/C(=O)c1ccc(O)cc1 [Echinatin] , readout=raw data 2) returns 4837.17

get_value(item= COc1ccc(C=O)cc1O [Isovanillin] , readout=raw data 2) returns 5167.88

get_value(item= CCc1ccc(O)cc1O [4-Ethylresorcinol] , readout=raw data 2) returns 4925.02

###

# assayed_target: tau (Homo sapiens)
# assay_overview: MCE Phenols Library screening, tau biosensor cell seeding assay (AvZ)
# Type: cell-based
# study_conditions: average Z score of the two replicates, MCE Phenols Library screen
We label by threshold. Values of av Z strictly beneath -0.6 are criterion met. Values of -0.6 and up are criterion not met.

The examples below pair each entry with its known result.
{"columns": ["compound", "assayed_target", "assigned_label"],
 "data": [
  ["COc1cc(C)c2c(=O)cc(C[C@@H](C)O)oc2c1[C@@H]1O[C@H](CO)[C@@H](O)[C@H](O)[C@H]1OC(=O)/C=C/c1ccc(O)cc1 [Aloeresin D]", "tau (Homo sapiens)", "criterion met"],
  ["C[C@@H]1O[C@@H](O[C@@H]2[C@@H](O)[C@H](OCCc3ccc(O)c(O)c3)O[C@H](CO)[C@H]2OC(=O)/C=C/c2ccc(O)c(O)c2)[C@H](O)[C@H](O)[C@H]1O [Verbascoside]", "tau (Homo sapiens)", "criterion met"],
  ["COC(=O)[C@@H](Cc1ccc(O)c(O)c1)OC(=O)/C=C/c1ccc(O)c(O)c1 [Methyl rosmarinate]", "tau (Homo sapiens)", "criterion not met"]
]}

Find out if reported av Z for Cc1cc(O)c2c(=O)c3c(O)cc(O)c4c5c(O)cc(O)c6c(=O)c7c(O)cc(C)cc7c(c65)c(c2c1)c34 [Protohypericin] is less than -0.6
criterion met

Find out if reported av Z for C[C@@H]1O[C@@H](Oc2cc(O)c3c(=O)c(O)c(-c4ccc(O)cc4)oc3c2O)[C@H](O)[C@H](O)[C@H]1O [Rhodionin] is less than -0.6
criterion met

Find out if reported av Z for O=c1cc(-c2ccccc2)oc2c(O)c(O)cc(O)c12 [Norwogonin] is less than -0.6
criterion met

Find out if reported av Z for O=c1ccc2cc(O)c(O)cc2o1 [Esculetin] is less than -0.6
criterion not met

Find out if reported av Z for Oc1cc(O)c2c(c1)O[C@H](c1ccc(O)c(O)c1)[C@H](O)[C@H]2c1c(O)cc(O)c2c1O[C@H](c1ccc(O)c(O)c1)[C@H](O)C2 [Procyanidin B2] is less than -0.6
criterion met
